Each entry below lists one item and its recorded IC50 value.
Biological target: ERK2 E322K (Mus musculus, UniProt P63085, E320K)
Construct: His6; made in house; host or cells: E. coli BL21(DE3), co-expressed with GST-MEK1ΔN3
Sequence (P63085 whole entry E320K): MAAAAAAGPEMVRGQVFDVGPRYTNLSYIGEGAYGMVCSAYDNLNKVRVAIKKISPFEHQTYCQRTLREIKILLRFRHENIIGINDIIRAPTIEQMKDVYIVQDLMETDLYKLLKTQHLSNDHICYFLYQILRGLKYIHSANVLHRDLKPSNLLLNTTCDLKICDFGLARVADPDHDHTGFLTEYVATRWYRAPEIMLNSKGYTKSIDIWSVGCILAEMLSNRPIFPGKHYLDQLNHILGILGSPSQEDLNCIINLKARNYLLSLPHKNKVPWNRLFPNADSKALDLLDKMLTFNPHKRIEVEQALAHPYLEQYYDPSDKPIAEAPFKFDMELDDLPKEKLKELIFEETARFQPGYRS
Test: Competitive peptide kinase assay (D-peptide inhibition), ERK2 E322K
Type: biochemical
Settings: Table 2, 5 μM reporter peptide, 10 nM ERK2, 10 μM ATP, mean of three independent replicates, read-out: IC50, ERK2 E322 K
Peptide text beside a SMILES is read from it.
Answer format: numeric, µM implied, no suffix.

Here are 3 compounds together with their reported answers.
CC[C@H](C)[C@H](NC(=O)[C@H](C)NC(=O)[C@@H](N)Cc1ccc(O)cc1)C(=O)N[C@@H](CCCNC(=N)N)C(=O)N[C@@H](C)C(=O)N[C@@H](CCCNC(=N)N)C(=O)N[C@@H](CCCNC(=N)N)C(=O)NCC(=O)NCC(=O)N[C@@H](CC(C)C)C(=O)N1CCC[C@H]1C(=O)N[C@@H](CCCNC(=N)N)C(=O)N[C@@H](CC(C)C)C(=O)N[C@@H](C)C(=O)N[C@H](C(=O)N[C@@H](CO)C(=O)N[C@@H](CC(=O)O)C(=O)O)C(C)C [ISG20 peptide G7+] (H-YAIRARRGGLPRLAVSD-OH) : 210
CC[C@H](C)[C@H](NC(=O)[C@H](C)NC(=O)[C@@H](N)Cc1ccc(O)cc1)C(=O)N[C@@H](CCCNC(=N)N)C(=O)N[C@@H](C)C(=O)N[C@@H](CCCNC(=N)N)C(=O)N[C@@H](C)C(=O)NCC(=O)N[C@@H](CC(C)C)C(=O)N1CCC[C@H]1C(=O)N[C@@H](CCCNC(=N)N)C(=O)N[C@@H](CC(C)C)C(=O)N[C@@H](C)C(=O)N[C@H](C(=O)N[C@@H](CO)C(=O)N[C@@H](CC(=O)O)C(=O)O)C(C)C [ISG20 peptide R5A] : 400
CC[C@H](C)[C@H](NC(=O)[C@H](C)NC(=O)[C@@H](N)Cc1ccc(O)cc1)C(=O)N[C@@H](CCCNC(=N)N)C(=O)N[C@@H](C)C(=O)N[C@@H](C)C(=O)N[C@@H](CCCNC(=N)N)C(=O)NCC(=O)N[C@@H](CC(C)C)C(=O)N1CCC[C@H]1C(=O)N[C@@H](CCCNC(=N)N)C(=O)N[C@@H](CC(C)C)C(=O)N[C@@H](C)C(=O)N[C@H](C(=O)N[C@@H](CO)C(=O)N[C@@H](CC(=O)O)C(=O)O)C(C)C [ISG20 peptide R4A] : 300

Now for the compound whose IC50 we want.
Would you kindly share the measured IC50 for CC[C@H](C)[C@H](NC(=O)[C@H](C)NC(=O)[C@@H](N)Cc1ccc(O)cc1)C(=O)NCC(=O)N[C@@H](CCCNC(=N)N)C(=O)N[C@@H](C)C(=O)N[C@@H](CCCNC(=N)N)C(=O)N[C@@H](CCCNC(=N)N)C(=O)NCC(=O)N[C@@H](CC(C)C)C(=O)N1CCC[C@H]1C(=O)N[C@@H](CCCNC(=N)N)C(=O)N[C@@H](CC(C)C)C(=O)N[C@@H](C)C(=O)N[C@H](C(=O)N[C@@H](CO)C(=O)N[C@@H](CC(=O)O)C(=O)O)C(C)C [ISG20 peptide G2+] (H-YAIGRARRGLPRLAVSD-OH) ?
170
